biological target: mouse Tas2r105 (Mus musculus, UniProt Q9JKT4); construct: expressed in transfected cells; host or cells: HEK293T-Gα16gust44; test: Calcium imaging assay (FLIPR), HEK293T-Gα16gust44 cells transfected with mouse Tas2r105; assay type: cell-based; settings: Time 42.781 s
Sequence (Q9JKT4 whole entry): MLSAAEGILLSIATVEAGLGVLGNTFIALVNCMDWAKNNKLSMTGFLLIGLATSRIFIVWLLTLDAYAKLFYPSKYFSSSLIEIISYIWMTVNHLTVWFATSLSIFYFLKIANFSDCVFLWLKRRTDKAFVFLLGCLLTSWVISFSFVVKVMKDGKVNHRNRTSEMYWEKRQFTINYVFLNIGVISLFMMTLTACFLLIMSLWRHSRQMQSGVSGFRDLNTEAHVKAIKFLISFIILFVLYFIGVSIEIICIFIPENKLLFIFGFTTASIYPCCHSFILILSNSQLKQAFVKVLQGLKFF
REPORTED ENDPOINT: RLU (RLU)

1) C[C@H](CCC(=O)O)[C@H]1CC[C@H]2[C@@H]3CC[C@@H]4C[C@H](O)CC[C@]4(C)[C@H]3C[C@H](O)[C@]12C = -11.7018
2) C[C@H](CCC(=O)O)[C@H]1CC[C@H]2[C@@H]3[C@H](O)C[C@@H]4C[C@H](O)CC[C@]4(C)[C@H]3C[C@H](O)[C@]12C = 131.095
3) C[C@H](CCC(=O)O)[C@H]1CC[C@H]2[C@@H]3CC[C@@H]4C[C@H](O)CC[C@]4(C)[C@H]3CC[C@]12C = 49.1517
4) C[C@H](CCC(=O)NCC(=O)O)[C@H]1CC[C@H]2[C@@H]3[C@H](O)C[C@@H]4C[C@H](O)CC[C@]4(C)[C@H]3C[C@H](O)[C@]12C = 141.314

====

Target: mouse Tas2r117 (Mus musculus, UniProt Q7M715)
Construct: expressed in transfected cells; host or cells: HEK293T-Gα16gust44
Sequence (Q7M715 1-330): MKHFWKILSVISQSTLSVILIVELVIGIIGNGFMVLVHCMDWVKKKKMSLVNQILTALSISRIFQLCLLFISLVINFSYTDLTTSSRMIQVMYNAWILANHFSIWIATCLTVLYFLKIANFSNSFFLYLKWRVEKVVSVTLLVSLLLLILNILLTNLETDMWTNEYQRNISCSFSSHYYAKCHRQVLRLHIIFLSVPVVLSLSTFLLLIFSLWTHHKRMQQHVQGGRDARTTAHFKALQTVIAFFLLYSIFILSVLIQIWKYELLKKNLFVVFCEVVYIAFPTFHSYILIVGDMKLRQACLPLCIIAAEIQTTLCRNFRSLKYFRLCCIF
Test: Calcium imaging assay (FLIPR), HEK293T-Gα16gust44 cells transfected with mouse Tas2r117
Format: cell-based
Settings: calculated where receptor saturation was reached; read-out: EC50 Tas2r117
REPORTED ENDPOINT: EC50 (µM)

1. C[C@H](CCC(=O)NCC(=O)O)[C@H]1CC[C@H]2[C@@H]3[C@H](O)C[C@@H]4C[C@H](O)CC[C@]4(C)[C@H]3C[C@H](O)[C@]12C [Glycocholic Acid, glycocholic acid] = 16

====

target: human TAS2R1 (Homo sapiens); construct: expressed in transfected cells; host or cells: HEK293T-Gα16gust44; experiment: Calcium imaging assay (FLIPR), HEK293T-Gα16gust44 cells transfected with human TAS2R1; format: cell-based; conditions: conc. 0,003 mM; TAS2R1
Sequence (Q9NYW7 whole entry): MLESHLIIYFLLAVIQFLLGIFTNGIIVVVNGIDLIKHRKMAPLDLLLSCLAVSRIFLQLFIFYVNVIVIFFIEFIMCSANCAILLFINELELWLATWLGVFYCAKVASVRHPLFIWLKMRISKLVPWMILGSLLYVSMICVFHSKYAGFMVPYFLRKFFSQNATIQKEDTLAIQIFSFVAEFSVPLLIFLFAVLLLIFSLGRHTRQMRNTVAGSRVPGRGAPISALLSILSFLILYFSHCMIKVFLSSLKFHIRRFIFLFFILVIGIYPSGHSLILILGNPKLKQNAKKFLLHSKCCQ
REPORTED ENDPOINT: Δ F/F

1. C[C@H](CCC(=O)NCC(=O)O)[C@H]1CC[C@H]2[C@@H]3[C@H](O)C[C@@H]4C[C@H](O)CC[C@]4(C)[C@H]3C[C@H](O)[C@]12C = -0.001187
2. C[C@H](CCC(=O)O)[C@H]1CC[C@H]2[C@@H]3[C@@H](O)C[C@@H]4C[C@H](O)CC[C@]4(C)[C@H]3CC[C@]12C = 0.01609
3. C[C@H](CCC(=O)O)[C@H]1CC[C@H]2[C@@H]3[C@H](O)C[C@@H]4C[C@H](O)CC[C@]4(C)[C@H]3CC[C@]12C = 0.03254
4. C[C@H](CCC(=O)NCCS(=O)(=O)O)[C@H]1CC[C@H]2[C@@H]3[C@H](O)C[C@@H]4C[C@H](O)CC[C@]4(C)[C@H]3C[C@H](O)[C@]12C = 0.00592

====

target: human TAS2R4 (Homo sapiens); construct: expressed in transfected cells; host or cells: HEK293T-Gα16gust44; test: Calcium imaging assay (FLIPR), HEK293T-Gα16gust44 cells transfected with human TAS2R4; type: cell-based; conditions: Time (s) 293.547
Examples of compounds with documented RLU, fluorescence trace follow.
REPORTED ENDPOINT: RLU, fluorescence trace (RLU)

1. C[C@H](CCC(=O)NCC(=O)O)[C@H]1CC[C@H]2[C@@H]3[C@H](O)C[C@@H]4C[C@H](O)CC[C@]4(C)[C@H]3C[C@H](O)[C@]12C = 127.131
2. C[C@H](CCC(=O)O)[C@H]1CC[C@H]2[C@@H]3[C@@H](O)C[C@@H]4C[C@H](O)CC[C@]4(C)[C@H]3CC[C@]12C = 162.322
3. C[C@H](CCC(=O)NCCS(=O)(=O)O)[C@H]1CC[C@H]2[C@@H]3[C@H](O)C[C@@H]4C[C@H](O)CC[C@]4(C)[C@H]3C[C@H](O)[C@]12C = 189.99

====

Examples of compounds with documented RLU, fluorescence trace follow.
Target: human TAS2R4 (Homo sapiens, UniProt Q9NYW5)
Construct: expressed in transfected cells; host or cells: HEK293T-Gα16gust44
Sequence (Q9NYW5 1-299): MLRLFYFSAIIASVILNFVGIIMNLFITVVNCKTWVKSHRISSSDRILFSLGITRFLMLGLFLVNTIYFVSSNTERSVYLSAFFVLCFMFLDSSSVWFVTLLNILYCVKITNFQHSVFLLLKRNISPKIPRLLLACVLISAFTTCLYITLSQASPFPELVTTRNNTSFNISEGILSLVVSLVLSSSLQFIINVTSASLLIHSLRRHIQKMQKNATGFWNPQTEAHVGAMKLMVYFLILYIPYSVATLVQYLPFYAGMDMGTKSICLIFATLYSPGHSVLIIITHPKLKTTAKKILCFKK
Experiment: Calcium imaging assay (FLIPR), HEK293T-Gα16gust44 cells transfected with human TAS2R4
Format: cell-based
Details: Time (s) 126.781 (TCA, TLCA: 126.782)
REPORTED ENDPOINT: RLU, fluorescence trace (RLU)

1) C[C@H](CCC(=O)NCCS(=O)(=O)O)[C@H]1CC[C@H]2[C@@H]3CC[C@@H]4C[C@H](O)CC[C@]4(C)[C@H]3CC[C@]12C [Taurolithocholic Acid, taurolithocholic acid] = 249.374
2) C[C@H](CCC(=O)O)[C@H]1CC[C@H]2[C@@H]3[C@@H](O)C[C@@H]4C[C@H](O)CC[C@]4(C)[C@H]3CC[C@]12C [Ursodeoxycholic Acid, ursodeoxycholic acid] = 215.286
3) C[C@H](CCC(=O)O)[C@H]1CC[C@H]2[C@@H]3CC[C@@H]4C[C@H](O)CC[C@]4(C)[C@H]3C[C@H](O)[C@]12C [Deoxycholic Acid, deoxycholic acid] = 335.132
4) C[C@H](CCC(=O)O)[C@H]1CC[C@H]2[C@@H]3[C@H](O)C[C@@H]4C[C@H](O)CC[C@]4(C)[C@H]3C[C@H](O)[C@]12C [Cholic Acid, cholic acid] = 464.513
5) C[C@H](CCC(=O)NCC(=O)O)[C@H]1CC[C@H]2[C@@H]3[C@H](O)C[C@@H]4C[C@H](O)CC[C@]4(C)[C@H]3C[C@H](O)[C@]12C [Glycocholic Acid, glycocholic acid] = 489.381
6) C[C@H](CCC(=O)NCCS(=O)(=O)O)[C@H]1CC[C@H]2[C@@H]3[C@H](O)C[C@@H]4C[C@H](O)CC[C@]4(C)[C@H]3C[C@H](O)[C@]12C [Taurocholic Acid, taurocholic acid] = 564.916

====

Examples of compounds with documented RLU follow.
target: mouse Tas2r105 (Mus musculus, UniProt Q9JKT4); construct: expressed in transfected cells; host or cells: HEK293T-Gα16gust44; test: Calcium imaging assay (FLIPR), HEK293T-Gα16gust44 cells transfected with mouse Tas2r105; assay type: cell-based; settings: Time 12 s
REPORTED ENDPOINT: RLU (RLU)

1. C[C@H](CCC(=O)NCC(=O)O)[C@H]1CC[C@H]2[C@@H]3[C@H](O)C[C@@H]4C[C@H](O)CC[C@]4(C)[C@H]3C[C@H](O)[C@]12C = -34.2819
2. C[C@H](CCC(=O)O)[C@H]1CC[C@H]2[C@@H]3[C@H](O)C[C@@H]4C[C@H](O)CC[C@]4(C)[C@H]3C[C@H](O)[C@]12C = -3.285
3. C[C@H](CCC(=O)O)[C@H]1CC[C@H]2[C@@H]3CC[C@@H]4C[C@H](O)CC[C@]4(C)[C@H]3CC[C@]12C = 17.7969
4. C[C@H](CCC(=O)O)[C@H]1CC[C@H]2[C@@H]3CC[C@@H]4C[C@H](O)CC[C@]4(C)[C@H]3C[C@H](O)[C@]12C = -9.724

====

target: human TAS2R1 (Homo sapiens); construct: expressed in transfected cells; host or cells: HEK293T-Gα16gust44; test: Calcium imaging assay (FLIPR), HEK293T-Gα16gust44 cells transfected with human TAS2R1; assay type: cell-based; details: Time 2.015 s
REPORTED ENDPOINT: RLU (RLU)

1. C[C@H](CCC(=O)O)[C@H]1CC[C@H]2[C@@H]3[C@H](O)C[C@@H]4C[C@H](O)CC[C@]4(C)[C@H]3C[C@H](O)[C@]12C = -18.7915
2. C[C@H](CCC(=O)O)[C@H]1CC[C@H]2[C@@H]3[C@@H](O)C[C@@H]4C[C@H](O)CC[C@]4(C)[C@H]3CC[C@]12C = -1.909
3. C[C@H](CCC(=O)O)[C@H]1CC[C@H]2[C@@H]3CC[C@@H]4C[C@H](O)CC[C@]4(C)[C@H]3CC[C@]12C = -14.5951
4. C[C@H](CCC(=O)O)[C@H]1CC[C@H]2[C@@H]3[C@H](O)C[C@@H]4C[C@H](O)CC[C@]4(C)[C@H]3CC[C@]12C = 19.0362
